Values from patent US10524472B2

Tested on: soybean seeds
protocol summary: Root & shoot growth analysis after seed soak, soy
Assay type: in vivo
measurement setup: soy, seed soak 5.0 μg/ml, 12-14 days
Marks after values point to notes of the source that are not given here.
reported endpoint: Shoot (shoot length, percentage increase over untreated control)

SQGISEKQLDQLLSQLIQASLQP (P4-14S-20S); 5.8%*
ANNQDPMQALMQLLEDLV (P14a); −3.5%
SQGISEKQADQLLSQLIQALLQP (P4-14S-9A); 6.5%*

// next item, Shoot (shoot length, percentage increase over untreated control) requested
// query Find Shoot (shoot length, percentage increase over untreated control) (soybean seeds) for the entry QAGPQSANKTGNVDDANNQDPMQALMQLLEDLV (P14)
// result 4.4%
